Tested on: NCI-H460 lung
Test name: NCI tumour cell line growth inhibition, 48 h
Listed below: TGI values for each entry.

What does the record list as TGI for CC1(C)CC(=O)CC(=Nc2ccc([N+](=O)[O-])cc2)C1 ?
> 100 µM

***
What does the record list as TGI for Nc1c(C(=O)c2ccccc2)cnn1-c1ccc(F)cc1 ?
> 25 µM

Next: COc1cc(/C=C\c2cc(OC)c(OC)c(OC)c2)cc(N/C=C\C(=O)c2cc(OC)c(OC)c(OC)c2)c1OC
> 100 µM

----------
System: HCT-15 colon
Test name: NCI tumour cell line growth inhibition, 48 h
Quantity name: TGI

Below, 4 molecules whose answers are already recorded.
What does the record list as TGI for O=S(=O)(Nc1ccc(Cl)cc1Cl)c1ccc(-c2cnc(C3CC3)o2)cc1 ?
40.4 µM

Next: O=c1c2ncn(C3CCCO3)c2n(-c2ccccc2)c(=S)n1-c1ccccc1 (stereo not given)
> 100 µM

Next: COC12OCCN(C)C1=CC(=O)C1=NNC(C)C12 (stereo not given)
> 100 µM

Next: [N-]=[N+]=N/C1=C/CCCCC(=O)C1
> 100 µM

Now turn to the next molecule.
What does the record list as TGI for CC(=O)OCC1OC(n2c(C)cc(C)c(C#N)c2=S)C(OC(C)=O)C(OC(C)=O)C1OC(C)=O (stereo not given) ?
> 100 µM

Cited source: PubChem BioAssay (NCI)
